Answer each item with its documented growth.
Tested on: SR leukemia
assay method text: NCI-60 one-dose screen, 48 h (100 = growth as untreated, 0 = no growth, -100 = all killed)
stated conditions: 10 µM unless noted
The panel holds about 83,000 compounds, 20% with a hit somewhere; the sample as a whole holds those more often. Activity calls are given as the source filed them. The calls were made as follows: active = growth percent below 10; inactive = the rest.

Indicate its recorded growth; the compound in question is c1ccc(CCNc2c3ccccc3nc3ccccc23)cc1
20.9% (inactive)

Indicate its recorded growth; the compound in question is COc1cc(/C=C/C(=O)/C=C(O)/C=C/c2ccc(OC(=O)C34CC5CC(CC(C5)C3)C4)c(OC)c2)ccc1OC(=O)C12CC3CC(CC(C3)C1)C2
120% (inactive)

Indicate its recorded growth; the compound in question is CCNC(=O)Oc1ccc(/C(=C(/CC)Cc2ccccc2)c2ccc(OCCN3CCCC3)cc2)cc1
75.5% (inactive)

Indicate its recorded growth; the compound in question is CC1=CCC(OC(=O)C(C)(C)CC(O)(C(C)O)C(O)C2(C)C=CC(Cc3ccc(C(C)C)cc3)(C(C)C)CC2)(C(C)C)CC1 (centres undefined)
99% (inactive)

Indicate its recorded growth; the compound in question is CCN1C(=O)N(CC)C2C1NC(=S)N2/N=C/c1ccc(OC)cc1 (centres undefined)
24.1% (inactive)

Indicate its recorded growth; the compound in question is COC(=O)c1c2c(c(C)[n+]([O-])c1C)C(=O)C(NCc1cccc(Cl)c1)=CC2=O
9.98% (active)

Indicate its recorded growth; the compound in question is Cc1[nH]c(C2CC(c3ccc(C(F)(F)F)c(F)c3)=NN2c2ccccc2)c(C)c1C(=O)NCC(F)(F)F (centres undefined)
81.6% (inactive)

Indicate its recorded growth; the compound in question is O=C1c2ccccc2C(=O)C1c1ccc(Br)cc1
97.3% (inactive)

Indicate its recorded growth; the compound in question is CC(C)(C)n1cc(-c2ccnc(NCCNS(=O)(=O)c3ccc(O)cc3)c2)c(-c2cccc(O)c2)n1
88% (inactive)

----------
Test system: DU-145 prostate
assay method text: NCI-60 one-dose screen, 48 h (100 = growth as untreated, 0 = no growth, -100 = all killed)
stated conditions: 10 µM unless noted
The panel holds about 83,000 compounds, 20% with a hit somewhere; the sample as a whole holds those more often.
observed property: growth (%)
# unit: % | format: bare number

Write down the reported growth (system: DU-145 prostate) of COc1ccc(/C=C/c2ccc3ccccc3n2)c(OC)c1
91.2

Write down the reported growth (system: DU-145 prostate) of Cc1ccc(-c2csc(NC(=O)c3ccccc3CN3C(=O)c4ccccc4C3=O)n2)cc1
96.5

Write down the reported growth (system: DU-145 prostate) of CC/C=C\C[C@H](O)C/C=C1/C(=O)C=C[C@@H]1C/C=C\CCCC(=O)O
60.2

Write down the reported growth (system: DU-145 prostate) of Nc1nc(N)c(N=Nc2ccccc2)c(-c2ccccc2)n1
76.8

Write down the reported growth (system: DU-145 prostate) of COc1ccc(C(=O)c2cc3c(N)c(C(=O)Nc4ccccc4)sc3nc2C)cc1
17.7

Write down the reported growth (system: DU-145 prostate) of N#C/C(=C\c1cn(Cc2ccccc2)c2ccccc12)C(=O)Nc1ncc(Cc2ccccc2Cl)s1
24.3

Write down the reported growth (system: DU-145 prostate) of C=C1C(=O)O[C@H]2[C@H]1CC/C(COC(=O)/C=C/C(=O)OC/C1=C/CC[C@@]3(C)O[C@H]3[C@H]3OC(=O)C(=C)[C@@H]3CC1)=C\CC[C@@]1(C)O[C@@H]21
25.4

Write down the reported growth (system: DU-145 prostate) of COc1ccc(N2CCN(C(=O)c3sc4nc(C)c(Br)c(C)c4c3N)CC2)cc1
104

Write down the reported growth (system: DU-145 prostate) of COc1ccc(C(=O)/C=C/c2ccc(Cl)cc2)cc1S(=O)(=O)Nc1c(N)nc(SC)[nH]c1=O
88.3

----------
Answer each item with its documented growth.
Test system: UACC-62 melanoma
assay method text: NCI-60 one-dose screen, 48 h (100 = growth as untreated, 0 = no growth, -100 = all killed)
stated conditions: 10 µM unless noted
Compounds without any hit were thinned out: in the full panel of roughly 83,000, 20% have a hit. Active and inactive are the calls of the source. The calls were made as follows: active = growth percent below 10; inactive = the rest.

Indicate its recorded growth; the molecule in question is CC1=CC(c2ccco2)=C2C(N)=NNC2N1 (stereo not given)
89.3% (inactive)

Indicate its recorded growth; the molecule in question is O=C(CSc1nnc(-c2cc(-c3ccccc3)nc3ccccc23)n1-c1ccccc1)Nc1ccc(C(=O)/C=C/c2ccc(Cl)cc2)cc1
67.9% (inactive)

Indicate its recorded growth; the molecule in question is CN(CCCNC(=O)Cc1ccc2ccc3cccc4ccc1c2c34)CCCNc1cc(-c2ccc3ccccc3c2)nc2ccccc12
-51.6% (active)

Indicate its recorded growth; the molecule in question is COc1ccc(/C=C2\COc3ccc(O)cc3C2=O)cc1
85.7% (inactive)

Indicate its recorded growth; the molecule in question is CCOC(=O)c1c(C)nc2ccccc2c1/C=C/c1cccs1
50.7% (inactive)

Indicate its recorded growth; the molecule in question is O=C1/C(=C/c2ccccn2)NC(=S)N1c1ccccc1Cl
66.7% (inactive)

Indicate its recorded growth; the molecule in question is CC1(C)CC[C@]23CC[C@]4(C)[C@H](CC[C@@H]5[C@@]6(C)C/C(=C/c7ccncc7)C(=O)C(C)(C)[C@@H]6CC[C@]54C)[C@H]2[C@H]1OC3
90.5% (inactive)

Indicate its recorded growth; the molecule in question is N#C/C(=C\c1ccc([N+](=O)[O-])cc1)n1nnc2cc(F)c(F)cc21
-43.7% (active)

Indicate its recorded growth; the molecule in question is Clc1ccc(-c2cc(-c3ccccc3)nc(NCCNc3ccnc4cc(Cl)ccc34)n2)cc1
69% (inactive)

Indicate its recorded growth; the molecule in question is Cc1ccc(CNc2ccc3nc(CCC(C)C)[nH]c3c2)cc1
90.7% (inactive)

----------
Tested on: CCRF-CEM leukemia
assay method text: NCI-60 one-dose screen, 48 h
stated conditions: 10 µM unless noted
About 83,000 compounds went through this panel and 20% of them were active in at least one assay; those are over-represented in the sample as a whole. Active and inactive are the calls of the source. Rule for the calls: active = growth percent below 10; inactive = the rest.
# valid calls are true for active, false for inactive; nothing else

In this assay, the call recorded for C=C(C)[C@@H]1CCC[C@]2(C(=O)N3CCN(C)CC3)CC[C@]3(C)[C@@H](CC[C@@H]4[C@@]5(C)CC/C(=N\NC(=O)c6ccncc6)C(C)(C)[C@@H]5CC[C@]43C)[C@@H]12 was what?
false

In this assay, the call recorded for NC(N)=NS(=O)(=O)c1ccc(NC2=C(I)C(=O)c3ncccc3C2=O)cc1 was what?
false

In this assay, the call recorded for Cc1ccc(N2C(=O)CCC2=O)cc1 was what?
false

In this assay, the call recorded for O=C(O)c1ccc(-c2ccc(/C=N/Nc3nc(Nc4ccccc4)nc(N4CCCCC4)n3)o2)cc1 was what?
false

In this assay, the call recorded for O=P(O)(O)OCC1OC(n2cnc3c(NCc4ccco4)ncnc32)C(O)C1O (centres undefined) was what?
true

In this assay, the call recorded for C=C1CC[C@@H]2[C@](C)(COC(C)=O)[C@H](OC(C)=O)CC[C@@]2(C)[C@@H]1CC(Nc1ccc(S(=O)(=O)NC(C)=O)cc1)C1=CCOC1=O (some centres undefined) was what?
true

In this assay, the call recorded for C=C1C(=O)O[C@H]2[C@H]1CC/C(COC(=O)NCc1ccc(Cn3c(=O)sn(-c4ccc(C#N)cc4)c3=O)cc1)=C\CC[C@@]1(C)O[C@@H]21 was what?
true

In this assay, the call recorded for C=C1C(=O)O[C@H]2[C@H]1CC/C(COC(=O)c1cc3cc(Cl)ccc3[nH]1)=C\CC[C@@]1(C)O[C@@H]21 was what?
true

In this assay, the call recorded for Cc1ccc(-c2nc(/C=C3/C(=O)Nc4ccc(F)cc43)c3ccccn23)cc1 was what?
false

In this assay, the call recorded for CN1CCN(C(=S)SCCCCOc2cc(=O)oc3ccccc23)CC1 was what?
false

In this assay, the call recorded for C[C@H](CCCC(=O)NCC#CCN1CCN(C)CC1)[C@H]1CC[C@H]2[C@@H]3CC[C@@H]4CC(=O)CC[C@]4(C)[C@H]3CC[C@]12C was what?
false

In this assay, the call recorded for Cc1ncc(C(=O)Nc2ccc(CN3CCN(C)CC3)c(C(F)(F)F)c2)cc1C#Cc1cnc(N)c2ncccc12 was what?
true

In this assay, the call recorded for CC1(C)CC(=O)c2c(nn(-c3ccc(Br)cc3)c2-c2cn(-c3ccccc3)nc2-c2cccnc2)C1 was what?
false

In this assay, the call recorded for COc1ccc2[nH]cc(-c3nc(-c4c[nH]c5c(Cl)nccc45)cs3)c2c1 was what?
false

In this assay, the call recorded for CC(=O)OC[C@]12CC[C@@H]([C@@H](C)c3nnc(-c4ccncc4)o3)[C@@H]1[C@H]1CC[C@@H]3[C@@]4(C)CC[C@H](OC(C)=O)C(C)(C)[C@@H]4CC[C@@]3(C)[C@]1(C)CC2 was what?
false

In this assay, the call recorded for COc1ccc(-c2nn(-c3ccccc3)cc2/C=C/C(=O)NNC(=O)Nc2ccc(C)cc2)cc1 was what?
false

In this assay, the call recorded for C/C(=N\O)c1ccc(NC(=O)CSc2nnc(-c3cc(-c4ccc(S(N)(=O)=O)cc4)nc4ccccc34)n2-c2ccccc2)cc1 was what?
false

In this assay, the call recorded for O=C(O)/C=C/C(=O)Nc1cccc(Cn2nnc3cc(Cl)c(Cl)cc32)c1 was what?
false

In this assay, the call recorded for CC1=C(C(=O)Nc2ccccc2)C(c2ccc3c(c2)OCO3)NC(=S)N1 (centres undefined) was what?
false

In this assay, the call recorded for N#Cc1ccc(O)c(C2=NCC(Cc3ccccc3)O2)c1 (centres undefined) was what?
false

In this assay, the call recorded for Cc1cc2c(cc1C)N(C(=O)CCl)CC(=O)N2 was what?
true

In this assay, the call recorded for O=C(Nc1cc(Cl)ccc1O)c1cccc(Nc2ccnc(C(F)(F)F)c2)c1 was what?
true

In this assay, the call recorded for C#CCO[C@H]1CC(CC#C)(CC#C)C(=O)[C@@H]2[C@H]1[C@H]1C[C@@H]3[C@@]4(C)CCC[C@@](C)(C(=O)OC)[C@@H]4CC[C@@]23C=C1C(C)C was what?
true

In this assay, the call recorded for NC(=O)c1c(NC(=O)c2cccs2)sc2c1CCC(=O)C2 was what?
true

In this assay, the call recorded for COc1ccc(/C=C/C(=O)c2cc(OC)c(OC)c(OC)c2)cc1OCC(=O)Nc1nc2ccc(OC(F)(F)F)cc2s1 was what?
false

In this assay, the call recorded for Cc1ccc(C)c2c(C)c(C(=O)Nc3cccc(-n4cccn4)c3)oc12 was what?
false

In this assay, the call recorded for CNC1=C([N+](=O)[O-])C(c2ccc(OC)cc2)C(C#N)=C(c2cccs2)O1 (centres undefined) was what?
false

In this assay, the call recorded for COc1ccc(Cn2cc(C(=O)N=Nc3c(O)[nH]c4c(C)cccc34)nn2)cc1 was what?
false

In this assay, the call recorded for CC[C@]12C=CCN3CC[C@@]4(c5ccc(OC)cc5N(C)[C@H]4[C@@](O)(C(=O)OC)[C@@H]1OC(=O)CCC[P+](c1ccccc1)(c1ccccc1)c1ccccc1)[C@@H]32 was what?
false

In this assay, the call recorded for C=C1C(=O)O[C@H]2[C@H]1CC/C(Cn1cc(CCC)nn1)=C\CC[C@@]1(C)O[C@@H]21 was what?
true

In this assay, the call recorded for CCOC(=O)C1=C(C)/C(=C\c2[nH]c(C)c(C(=O)OCC)c2C)N=C1C was what?
true

In this assay, the call recorded for O=C(CCl)NNc1nccc(Nc2ccc(S(=O)(=O)Nc3ccncc3)cc2)n1 was what?
false

In this assay, the call recorded for COc1ccc2cc(-c3ccnc4c(N=Nc5ccc(Cl)cc5)c(N)nn34)ccc2c1 was what?
false

In this assay, the call recorded for Fc1ccc(Cn2cc(CSc3nc4ccccc4o3)nn2)cc1 was what?
false

Hey, just so you know, these numbers are from PubChem BioAssay (NCI).
